- TARGET_OR_TEST_SYSTEM: HLA-B*18:01
- PROTOCOL_SUMMARY: IEDB peptide-MHC binding, purified MHC/competitive/fluorescence; filed as Kd, often an IC50 or EC50 that approximates it; bounds were set here for any values at or beyond the usual limits of such assays
- CONDITION_CONTEXT: source organism: Vibrio vulnificus CMCP6
READOUT_TYPE: pKd
Give bare numbers, as −log10 of the molar value.

Entry under review: LEMNDAPTA . Reported pKd?
6.62

----------
- TARGET_OR_TEST_SYSTEM: HLA-B*15:01
- PROTOCOL_SUMMARY: IEDB peptide-MHC binding, purified MHC/competitive/fluorescence; bounds were set here for any values at or beyond the usual limits of such assays
- CONDITION_CONTEXT: source organism: Vaccinia virus WR
READOUT_TYPE: IC50

   query_sequence  target_or_test_system  reported_measurement
0       KSINVEYRF            HLA-B*15:01             ≥ 98.4 µM

Find the measured IC50: item IEILNTIQF , target or system HLA-B*15:01.
≥ 139 µM
